# Tested on: Cyperus serotinus, Rottb.
# TEST: Preemergence weed control under flooded paddy conditions, CYPSE (Flatsedge); note: meaning of each grade not given here
# Format: in vivo
# EXPERIMENTAL_SETUP: Rate 0.2500 kg/ha, preemergence weeds, rated three to four weeks after treatment
RESULT_TYPE: herbicidal effect rating, CYPSE

{"COMPOUND": "CC(Oc1ccccc1-c1nsc2ccc(-n3c(=O)cc(C(F)(F)F)n(C)c3=O)cc12)C(=O)NS(C)(=O)=O (stereo not drawn)", "RESULT_TYPE": "herbicidal effect rating, CYPSE", "VALUE_OBSERVED": 6.0}
{"COMPOUND": "Cn1c(C(F)(F)F)cc(=O)n(-c2ccc3snc(-c4ccccc4OCC(=O)O)c3c2)c1=O", "RESULT_TYPE": "herbicidal effect rating, CYPSE", "VALUE_OBSERVED": 6.0}
{"COMPOUND": "CONC(=O)COc1ccc(C)cc1-c1nsc2ccc(-n3c(=O)cc(C(F)(F)F)n(C)c3=O)cc12", "RESULT_TYPE": "herbicidal effect rating, CYPSE", "VALUE_OBSERVED": 0.0}
{"COMPOUND": "CC(Oc1ccccc1-c1nsc2ccc(-n3c(=O)cc(C(F)(F)F)n(C)c3=O)cc12)C(=O)O (stereo not drawn)", "RESULT_TYPE": "herbicidal effect rating, CYPSE", "VALUE_OBSERVED": 0.0}
{"COMPOUND": "Cn1c(C(F)(F)F)cc(=O)n(-c2ccc3snc(C(=O)CBr)c3c2)c1=O", "RESULT_TYPE": "herbicidal effect rating, CYPSE", "VALUE_OBSERVED": 9.0}
{"COMPOUND": "COC(=O)CN(Cc1nsc2ccc(-n3c(=O)cc(C(F)(F)F)n(C)c3=O)cc12)S(C)(=O)=O", "RESULT_TYPE": "herbicidal effect rating, CYPSE", "VALUE_OBSERVED": 0.0}
{"COMPOUND": "CSc1ccc(C)cc1-c1nsc2ccc(-n3c(=O)cc(C(F)(F)F)n(C)c3=O)cc12", "RESULT_TYPE": "herbicidal effect rating, CYPSE", "VALUE_OBSERVED": 9.0}
{"COMPOUND": "Cn1c(C(F)(F)F)cc(=O)n(-c2ccc3snc(C(C)(Br)Br)c3c2)c1=O", "RESULT_TYPE": "herbicidal effect rating, CYPSE", "VALUE_OBSERVED": 7.0}
{"COMPOUND": "COC(=O)C(C)Oc1ccc(OC)cc1-c1nsc2ccc(-n3c(=O)cc(C(F)(F)F)n(C)c3=O)cc12 (stereo not drawn)", "RESULT_TYPE": "herbicidal effect rating, CYPSE", "VALUE_OBSERVED": 0.0}
